B1: library; a variant is named by its letters at N, in order (parent)
chain: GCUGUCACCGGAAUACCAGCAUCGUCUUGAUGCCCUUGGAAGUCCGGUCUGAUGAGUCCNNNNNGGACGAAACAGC

Variants of: B1
Assay: normalized RNA/DNA level with ligand (relative to sTRSVctl = 100) (log10 (% of sTRSVctl)); higher = less ribozyme self-cleavage, higher mRNA level
Settings: ligand concentration (+) RNA-Seq: 5 mM, HEK293T, reporter: mCherry (pCS4076), ligand present: yes
Assign y whenever normalized RNA/DNA level with ligand (log10) does not fall below 2; assign n whenever it does.

{"columns": ["Variant Annotation", "Category Label"],
 "data": [
  ["UCGGU", "y"],
  ["CUAUC", "n"],
  ["UGCCU", "y"],
  ["CCGAA", "n"],
  ["AUAGC", "n"],
  ["AAGUU", "n"],
  ["AGUAA", "n"],
  ["CACCU", "y"],
  ["UUUGU", "y"]
]}
